Tested on: HT29 colon
ASSAY PROTOCOL: NCI tumour cell line growth inhibition, 48 h
Can you tell me TGI for the items I'm about to list?

molecule CC(=O)OCCOCn1c2c(c(=O)[nH]c1=O)CCC2 , TGI observed: > 100 µM

molecule COC(=O)c1cc(C)ccc1/C=C1\Cc2cccc(C)c2C1=O , TGI observed: > 100 µM

molecule O=C(/C=C/c1ccc(Br)cc1)c1ccc(NCc2nc3ccccc3[nH]2)cc1 , TGI observed: 27.4 µM

molecule CCOC(=O)C(NC(=O)CC)(Nc1ccccc1OC)C(F)(F)F (stereo unspecified) , TGI observed: > 100 µM

molecule CC1(C)c2ccccc2C(C)(C)C(C(=O)Nc2ccccc2)C1C(=O)O (stereo unspecified) , TGI observed: > 100 µM

molecule O=c1c2ccc(Cl)cc2oc2c(CNc3ccc(S(=O)(=O)Nc4nccs4)cc3)cccc12 , TGI observed: > 100 µM

molecule C=C1CCc2ccccc2C1=O , TGI observed: > 100 µM

molecule CSC(=NC#N)S/C=C/C(=O)c1ccc(Cl)cc1 , TGI observed: 46.4 µM

molecule ClC1=C(Cl)C(Cl)(Cl)SS1 , TGI observed: > 10 µM

molecule O=C(N/N=C/c1cc(Cl)cc(Cl)c1[O-])c1ccccc1O.O=C(N/N=C/c1cc(Cl)cc(Cl)c1[O-])c1ccccc1O.[Cl-].[Fe+3] , TGI observed: 34.8 µM

molecule Cc1cc(C)n(C(=O)CSc2nc3ccc(I)cc3c(=O)n2Cc2ccccc2)n1 , TGI observed: > 100 µM

molecule O=C(O)CSc1ccc(N=C=S)cc1 , TGI observed: > 100 µM

molecule O=C(N/N=C/c1c(Cl)cccc1Cl)c1cccnc1Nc1cccc(C(F)(F)F)c1 , TGI observed: > 100 µM

molecule O=C(Nc1ccc(Cl)c(Cl)c1)C(=O)C(C(=O)c1ccccc1F)C1OC(=O)c2ccccc21 (stereo unspecified) , TGI observed: 88.8 µM

molecule COC(=O)C1=C(C)C(=O)[C@H]2C(C(=O)OC)CCCC[C@@H]12 (stereo partly specified) , TGI observed: > 100 µM

molecule Cc1ccc(NC2=N[C@]34CC(=O)CC[C@]3(C)[C@H]3CC[C@]5(C)C(=O)CC[C@H]5[C@@H]3C[C@@H]4S2)c(C)c1 , TGI observed: 7.04 µM

molecule C/C(=N/OC(=O)c1cccc2c(=O)c3ccccc3[nH]c12)[C@H]1CC[C@H]2[C@@H]3CCC4=C/C(=N/OC(=O)c5cccc6c(=O)c7ccccc7[nH]c56)CC[C@]4(C)[C@H]3CC[C@]12C , TGI observed: 28.8 µM

molecule O=C(Nc1ccc(Cl)cc1)c1cc2c(cc1Cl)Sc1nccn1S2(=O)=O , TGI observed: > 100 µM

molecule CCc1cccc(C)c1NC(=O)CC(=O)NNC(N)=S , TGI observed: > 100 µM

molecule COc1cc2c(cc1OCc1ccccc1)N=CC1C[C@@H](O)CN1C2=O (stereo partly specified) , TGI observed: > 100 µM

molecule COc1ccc(C(O)c2cc(OC)c(OC)c(OC)c2)cc1 (stereo unspecified) , TGI observed: > 100 µM
